- target-entity: Protein translocase subunit SecA (Escherichia coli (strain K12))
- test-summary: Assay to Identify E. coli SecA ATPase Inhibitors
- Type: functional
- Set-up: scale not given: direction of the effect not stated beside the values
- measurement-conditions: 30 µM
Measured potencies and affinities stand elsewhere.
The following compounds are shown together with reported Percent Effect values.
Value expressed in %; do not type the unit.

Worked cases, answers included:
* COc1cc(CNC(=O)NCCCF)cc(Br)c1OC | -5.95
* CCc1nc(C2CCCN2Cc2nc(C3CC3)no2)no1 (stereo not given) | -0.343
* CCc1cccc(NS(=O)(=O)c2cc3c(c(C(=O)O)c2)OCCO3)c1 | -5.6
* c1coc(-c2noc(CN3CC(n4cccn4)C3)n2)c1 | -5.48
* CCOc1ccc(CC(CNC(=O)c2occc2C)C(N)=O)cc1 (stereo not given) | -5.57
* CC(=O)c1cc(CN2C[C@H]3CC[C@@H]2CN(S(=O)(=O)N(C)C)C3)cs1 | -5.56
* Cc1nc(C(=O)N2CCCC2c2c(C)nn(C)c2C)ccc1C#N (stereo not given) | -5.64
* O=C(c1ccncc1)N1CCC(c2nc(O)cc(-c3cccnc3)n2)C1 (stereo not given) | -0.62

Q. Identify the measured Percent Effect of O=C1COC2(CCN(Cc3cccs3)CC2)CN1c1ccccc1 for Protein translocase subunit SecA (Escherichia coli (strain K12)).
A. -2.08

Q. Entry CN(Cc1nc(-c2ccco2)no1)C1CCCN(c2cccnn2)C1 (stereo not given) , system Protein translocase subunit SecA (Escherichia coli (strain K12)): what Percent Effect was measured?
A. -1.52
